method summary: Pharmacokinetics analysis of 8r in SD rats
Format: in vivo
condition notes: male, SD, rat, blood, po, 5 mg/kg
property measured: Cmax (µg/mL)

> print(dat)
                              smiles.string  reported.value
1  C[C@@H](Nc1nc2c(cnn2C2CCCC2)c(=O)[nH]1)C(=O)Nc1ccc(F)cc1           0.135

----------
method summary: Pharmacokinetics analysis of 8r in SD rats
Format: in vivo
condition notes: male, SD, rat, blood, po, 5 mg/kg
property measured: bioavailability (%)

> print(dat)
                              smiles.string  property.measured  output.unit  reported.value
1  C[C@@H](Nc1nc2c(cnn2C2CCCC2)c(=O)[nH]1)C(=O)Nc1ccc(F)cc1    bioavailability            %              18

----------
method summary: Pharmacokinetics analysis of 3r in CD-1 mice
Format: in vivo
condition notes: male, CD-1, mouse, blood, po, 5 mg/kg
property measured: Tmax (min)

> print(dat)
                              smiles.string  reported.value
1  COc1ccc(NC(=O)[C@@H](C)Nc2nc3c(cnn3C3CCCC3)c(=O)[nH]2)cc1            34.8

----------
method summary: Pharmacokinetics analysis of 3r in CD-1 mice
Format: in vivo
condition notes: male, CD-1, mouse, blood, po, 5 mg/kg
property measured: Cmax (ng/mL)

> print(dat)
                              smiles.string  property.measured  output.unit  reported.value
1  COc1ccc(NC(=O)[C@@H](C)Nc2nc3c(cnn3C3CCCC3)c(=O)[nH]2)cc1               Cmax        ng/mL             217

----------
method summary: Pharmacokinetics analysis of 3r in CD-1 mice
Type: in vivo
condition notes: male, CD-1, mouse, blood, po, 5 mg/kg
property measured: MRT inf (h)

> print(dat)
                                   compound  property.measured  reported.value
1  COc1ccc(NC(=O)[C@@H](C)Nc2nc3c(cnn3C3CCCC3)c(=O)[nH]2)cc1 [Compound 3r]            MRT inf            2.65

----------
method summary: Pharmacokinetics of 28s
Type: in vivo
condition notes: blood, po, 5 mg/kg
property measured: Cmax (ng/mL)

> print(dat)
                                   compound  output.unit  reported.value
1  COc1ccc(NC(=O)[C@H](C)Nc2nc3c(cnn3-c3ccccc3Cl)c(=O)[nH]2)cc1 [Compound 28s]        ng/mL              16
